# Test Target: UniProt:P0C7P0
# Sequence (P0C7P0 15-127): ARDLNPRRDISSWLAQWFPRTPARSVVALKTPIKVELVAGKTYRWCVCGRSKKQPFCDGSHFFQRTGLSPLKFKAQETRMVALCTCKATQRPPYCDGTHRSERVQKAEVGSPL
# Test Summary: Stability of Fe-S cluster binding of purified NEET protein (absorbance 458 nm)
# Format: biochemical
# Stated Conditions: time to 50% cluster loss changed by more than 25% compared to the Control sample, at the concentrations tested
Observation Type: Stabiliser or destabiliser of Fe-S cluster binding by CISD3 Gene Product (Miner2)

# Molecule, Measured
data = [
    ("CC1(C)Cc2c(sc(NC(=O)c3ccc(Br)cc3)c2C(=O)O)C(C)(C)C1 [Compound #138]", "Stabilisers"),
    ("COc1ccc(C(=O)Nc2sc3c(c2C(=O)O)CCC(C)(C)C3)cc1OC [Compound #18]", "Stabilisers"),
    ("CC1CC(C)(C)Cc2sc(NC(=O)c3ccc(NC4CCOCC4)cc3)c(C(=O)O)c21 (stereo not shown) [Compound #136]", "Destabilisers"),
    ("COC1CN(c2ccc(C(=O)Nc3sc4c(c3C(=O)O)CC(C)(C)CC4(C)C)cc2)C1 [Compound #58]", "Stabilisers"),
    ("CC1(C)CCc2sc(NC(=O)c3ccccc3)c(C(=O)O)c21 [Compound #37]", "Stabilisers"),
    ("COc1ccc(C(=O)Nc2sc3c(c2C(=O)O)CCC(C)(C)C3)cc1 [Compound #20]", "Destabilisers"),
    ("COCCNc1ccc(C(=O)Nc2sc3c(c2C(=O)O)CC(C)(C)CC3(C)C)cc1 [Compound #60]", "Stabilisers"),
    ("CC1(C)Cc2c(sc(NC(=O)c3ccc(N4CCOCC4)cc3)c2C(=O)O)C(C)(C)C1 [Compound #36]", "Stabilisers"),
    ("CC1(C)Cc2c(sc(NC(=O)c3ccc(NCC4CCOCC4)cc3)c2C(=O)O)C(C)(C)C1 [Compound #132]", "Stabilisers"),
    ("CN(c1ccc(C(=O)Nc2sc3c(c2C(=O)O)CC(C)(C)CC3(C)C)cc1)C1CCOCC1 [Compound #135]", "Stabilisers"),
]

* * *

# Test system: H1N1 (influenza A/New Caledonia/20/99)
# Test Summary: microbe, parasite or virus in culture
# Type: cell-based
# Stated Conditions: H1N1, A549, 48 h
Observation Type: log10 of IC50 (log10 of the value in nM)

# Compound, Measured
measured = [
    ("CC1(C)Cc2c(sc(NC(=O)c3ccc(NCC4CCCCO4)cc3)c2C(=O)O)C(C)(C)C1 (centres unmarked) [#166]", 0.83),
    ("CC1(C)CCc2sc(NC(=O)c3cccc(OC(F)F)c3)c(C(=O)O)c21 [Compound #98]", 2.90),
    ("O=C(Nc1sc2c(c1C(=O)O)CCC1(CC1)C2)c1ccc(F)cc1 [Compound #32]", 2.20),
    ("CC1(C)CCc2sc(NC(=O)c3ccccc3)c(C(=O)O)c2C1 [Compound #26]", 1.93),
    ("COc1ccc(C(=O)Nc2sc3c(c2C(=O)O)CC(C)(C)CC3)cc1OC [Compound #27]", 1.60),
]

* * *

# System: H1N1 (influenza A/New Caledonia/20/99)
# Test Summary: microbe, parasite or virus in culture
# Assay type: cell-based
# Stated Conditions: H1N1, A549, 48 h
pIC50: −log10 of the molar value.
Observation Type: pIC50

# Smiles Structure, Measured
measured = [
    ("COC1CCN(c2ccc(C(=O)Nc3sc4c(c3C(=O)O)CC(C)(C)CC4(C)C)cc2)CC1", 8.00),
    ("COCCCNc1ccc(C(=O)Nc2sc3c(c2C(=O)O)CC(C)(C)CC3(C)C)cc1", 8.47),
    ("CC1(C)Cc2c(sc(NC(=O)c3ccc(OC4CCOCC4)cc3)c2C(=O)O)C(C)(C)C1", 7.46),
    ("CC1(C)Cc2c(sc(NC(=O)c3ccc(OCC4COC4)cc3)c2C(=O)O)C(C)(C)C1", 6.96),
    ("COCCNc1ccc(C(=O)Nc2sc3c(c2C(=O)O)CC(C)(C)CC3)cc1", 7.62),
    ("Cn1cc(C(=O)Nc2sc3c(c2C(=O)O)CC(C)(C)CC3)cn1", 6.05),
    ("CC1(C)CCc2c(sc(NC(=O)c3ccc(F)cc3F)c2C(=O)O)C1", 6.59),
    ("CC1(C)Cc2c(sc(NC(=O)c3ccc(N4CC5(COC5)C4)cc3)c2C(=O)O)C(C)(C)C1", 6.80),
]

* * *

# System: H1N1 (influenza A/New Caledonia/20/99)
# Test Summary: microbe, parasite or virus in culture
# Assay type: cell-based
# Stated Conditions: H1N1, A549, 48 h
pIC50: −log10 of the molar value.
Observation Type: pIC50

# Compound, Measured
rows = [
    ("CC1(C)CCc2sc(NC(=O)c3ccc(N4CCOCC4)nc3)c(C(=O)O)c2C1", 6.70),
    ("CC1CC(C)(C)Cc2sc(NC(=O)c3ccc(NC4CCOCC4)cc3)c(C(=O)O)c21 (stereo not drawn)", 7.92),
    ("COC1CN(c2ccc(C(=O)Nc3sc4c(c3C(=O)O)CC(C)(C)CC4)cc2)C1", 7.74),
]

* * *

# Test system: Zika
# Test Summary: Antiviral effect in infected Huh7 cells, plaque assay on VeroE6
# Assay type: cell-based, ZIKV strain MR766
# Stated Conditions: Zika virus, Huh-7, MOI of 0,1 pfu per cell, supernatants 48 h post infection
pIC50: −log10 of the molar value.

# Smiles Structure, Test Target, pIC50
measured = [
    ("COc1ccc(C(=O)Nc2sc3c(c2C(=O)O)CCC(C)(C)C3)cc1OC", "Zika", 5.52),
]

* * *

# Test Target: CISD2 Gene Product (NAF-1) (Homo sapiens, UniProt Q8N5K1)
# Sequence (Q8N5K1 57-135 limits assumed): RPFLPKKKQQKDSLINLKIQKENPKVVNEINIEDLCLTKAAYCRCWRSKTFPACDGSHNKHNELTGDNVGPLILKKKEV
# Test Summary: Stability of Fe-S cluster binding of purified NEET protein (absorbance 458 nm)
# Type: biochemical
# Stated Conditions: NAF-1 20 μM, compound 60 μM, pH 6, at 500 minutes; vehicle control 3%
# Residual cluster bound at end of experiment (Percentage Absorbance 458 nm at time zero) values compiled below
Observation Type: Residual cluster bound at end of experiment (Percentage Absorbance 458 nm at time zero)

# Compound, Measured
records = [
    ("CC1(C)Cc2c(sc(NC(=O)c3ccc(NCC4CCOCC4)cc3)c2C(=O)O)C(C)(C)C1 [Compound #132]", "19% (3%)"),
    ("CC1(C)Cc2c(sc(NC(=O)c3ccc(Br)cc3)c2C(=O)O)C(C)(C)C1 [Compound #138]", "30% (3%)"),
    ("COc1ccc(C(=O)Nc2sc3c(c2C(=O)O)CCC(C)(C)C3)cc1 [Compound #20]", "4% (3%)"),
    ("CC1CC(C)(C)Cc2sc(NC(=O)c3ccc(NC4CCOCC4)cc3)c(C(=O)O)c21 (stereo not shown) [Compound #136]", "5% (3%)"),
]

* * *

# Test Target: CISD1 Gene Product (mitoNEET) (Homo sapiens, UniProt Q9NZ45)
# Sequence (Q9NZ45 33-108 limits assumed): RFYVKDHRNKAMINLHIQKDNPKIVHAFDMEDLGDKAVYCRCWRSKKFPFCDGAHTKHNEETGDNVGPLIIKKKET
# Test Summary: Stability of Fe-S cluster binding of purified NEET protein (absorbance 458 nm)
# Format: biochemical
# Stated Conditions: mitoNEET 20 μM, compound 60 μM, pH 6, at 180 minutes; vehicle control 16%
compounds and their reported Residual cluster bound at end of experiment (Percentage Absorbance 458 nm at time zero)
Observation Type: Residual cluster bound at end of experiment (Percentage Absorbance 458 nm at time zero)

# Smiles Structure, Measured
records = [
    ("CC1(C)Cc2c(sc(NC(=O)c3ccc(Br)cc3)c2C(=O)O)C(C)(C)C1", "53% (16%)"),
    ("COC1CN(c2ccc(C(=O)Nc3sc4c(c3C(=O)O)CCC(C)(C)C4)cc2)C1", "11% (16%)"),
    ("COc1ccc(C(=O)Nc2sc3c(c2C(=O)O)CCC(C)(C)C3)cc1", "0% (16%)"),
    ("CC1(C)Cc2c(sc(NC(=O)c3ccc(NC4CCOCC4)cc3)c2C(=O)O)C(C)(C)C1", "26% (16%)"),
    ("CC1(C)CCc2sc(NC(=O)c3ccccc3)c(C(=O)O)c21", "23% (16%)"),
    ("COC1CN(c2ccc(C(=O)Nc3sc4c(c3C(=O)O)CC(C)(C)CC4(C)C)cc2)C1", "36% (16%)"),
    ("CC1(C)Cc2c(sc(NC(=O)c3ccc(N4CCOCC4)cc3)c2C(=O)O)C(C)(C)C1", "36 % (16%)"),
    ("CN(c1ccc(C(=O)Nc2sc3c(c2C(=O)O)CC(C)(C)CC3(C)C)cc1)C1CCOCC1", "24% (16%)"),
]
